Experiment: Thermodynamic solubility / solubility in aqueous solution
Type: physicochemical
Conditions: aqueous buffer, thermodynamic from solid; Buffer pH 2; 4 days at ambient temperature; read-out: Solubility, Buffer pH 2
QUANTITY_MEASURED: solubility at 4 days (µg/mL)
Give bare numbers, in µg/mL.

[Q] So what's the measured solubility at 4 days for this one? O=C1CCc2cc(/C=C/C(=O)N3CCC=C(c4ccccc4)CC3)cnc2N1 [Co. No. 2]
[A] 2

----------
This document collects pIC50 values reported for UniProt:Q6GI75.
Sequence (Q6GI75 whole entry): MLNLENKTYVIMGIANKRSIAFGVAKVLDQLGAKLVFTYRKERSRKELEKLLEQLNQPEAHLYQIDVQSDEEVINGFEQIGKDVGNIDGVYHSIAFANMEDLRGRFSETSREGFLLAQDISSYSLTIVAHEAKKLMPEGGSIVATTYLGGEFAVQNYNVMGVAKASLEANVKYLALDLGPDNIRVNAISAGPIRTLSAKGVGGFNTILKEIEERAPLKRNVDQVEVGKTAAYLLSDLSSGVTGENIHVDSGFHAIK
Answers are plain numbers, as −log10 of the molar value.

Some entries whose results are on file:
[Q] pIC50 lookup needed for O=C1CCc2cc(/C=C/C(=O)N3CC=C(c4ccccc4Cl)CCC3)cnc2N1 , thanks.
[A] 6.11

[Q] GET /values?readout=pIC50&item= O=C1CCc2cc(/C=C/C(=O)N3CCC=C(c4ccccc4)CC3)cnc2N1
[A] 6.05

[Q] Please look up its pIC50: Cc1ccccc1C1=CCCN(C(=O)/C=C/c2cnc3c(c2)CCC(=O)N3)CC1
[A] 6.07

Take each entry in turn and give its pIC50.
1. O=C1CCc2cc(/C=C/C(=O)N3CC=C(c4ccc(Cl)cc4)CCC3)cnc2N1
2. O=C1CCc2cc(/C=C/C(=O)N3CCc4ccccc4CC3)cnc2N1
3. O=C1CCc2cc(/C=C/C(=O)N3CCC=C(c4ccccc4Cl)CC3)cnc2N1
4. COc1ccc(F)cc1C1=CCCN(C(=O)/C=C/c2cnc3c(c2)CCC(=O)N3)CC1
5. COc1ccc(F)cc1C1=CCN(C(=O)/C=C/c2cnc3c(c2)CCC(=O)N3)CCC1

[A]
5.85
5.82
6.03
5.97
5.86

Kindly give each listed record's pIC50.
1. O=C1CCc2cc(/C=C/C(=O)N3CCCC(Cc4ccccc4)CC3)cnc2N1 (stereo not drawn)
2. Cc1ccc(C)c(C2=CCCN(C(=O)/C=C/c3cnc4c(c3)CCC(=O)N4)CC2)c1
3. COc1ccccc1C1=CCN(C(=O)/C=C/c2cnc3c(c2)CCC(=O)N3)CCC1
4. O=C1CCc2cc(/C=C/C(=O)N3CCCC(n4ccnn4)CC3)cnc2N1 (stereo not drawn)
5. Cc1ccc(C)c(C2=CCN(C(=O)/C=C/c3cnc4c(c3)CCC(=O)N4)CCC2)c1
6. COc1ccc(C2=CCN(C(=O)/C=C/c3cnc4c(c3)CCC(=O)N4)CCC2)cc1
7. Cc1ccc(F)cc1C1=CCN(C(=O)/C=C/c2cnc3c(c2)CCC(=O)N3)CCC1

[A]
6.01
6.02
6.01
5.66
6.02
5.67
6.06

Provide each entry's pIC50 from the list below.
1. O=C1CCc2cc(/C=C/C(=O)N3CCC=C(c4cccc(Cl)c4)CC3)cnc2N1
2. O=C1CCc2cc(/C=C/C(=O)N3CCCC(n4cccn4)CC3)cnc2N1 (stereo not drawn)

[A]
5.98
5.34

----------
Please go through the items and note down their Tmax.
Test: In vivo pharmacokinetic and oral bioavailability
Settings: mouse, plasma, po; p.o. 10 mg/kg, male Swiss mice
Give bare numbers, in min.

Worked set:
[Q] Give the measured Tmax of COc1ccc(F)cc1C1=CCCN(C(=O)/C=C/c2cnc3c(c2)CCC(=O)N3)CC1 .
[A] 30

[Q] Look up Tmax: COc1ccccc1C1=CCCN(C(=O)/C=C/c2cnc3c(c2)CCC(=O)N3)CC1
[A] 30

Now examine the next entry.
[Q] Consider the compound Cc1ccc(F)cc1C1=CCN(C(=O)/C=C/c2cnc3c(c2)CCC(=O)N3)CCC1 and give its measured Tmax.
[A] 60
